inhibition at 0.5 µM listing for selected compounds.
target.of.assay: PDGFR-β kinase (Homo sapiens)
Construct: recombinant N-terminal 6×His-tagged PDGFR-β kinase domain construct expressed by baculovirus; 6xHis (N); made in house
Sequence (P09619 600-962 limits assumed): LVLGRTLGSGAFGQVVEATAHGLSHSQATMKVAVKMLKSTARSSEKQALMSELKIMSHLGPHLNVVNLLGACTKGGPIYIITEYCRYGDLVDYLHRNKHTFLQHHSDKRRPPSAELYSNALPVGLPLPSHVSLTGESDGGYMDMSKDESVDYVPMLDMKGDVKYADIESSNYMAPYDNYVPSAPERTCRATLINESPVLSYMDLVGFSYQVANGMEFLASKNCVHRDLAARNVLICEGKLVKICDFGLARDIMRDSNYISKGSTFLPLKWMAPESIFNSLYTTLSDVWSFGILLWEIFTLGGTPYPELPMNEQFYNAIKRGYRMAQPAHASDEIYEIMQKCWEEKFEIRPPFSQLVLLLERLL
procedure.details: PDGFR-β kinase assay (33P incorporation into Poly(Glu-Tyr))
Assay type: biochemical
condition.label: 500 nM test compound
Description: Inhibition of PDGFR-β kinase activity by compounds disclosed herein was quantified by measuring the amount of [^33P] incorporated into the substrate in the presence of a test compound. […] The plate was then sealed and counted using a TopCount scintillation detector (PerkinElmer). The percentage of inhibition rate of the test compound was calculated by dividing the retained radioactivity of the test sample with the retained radioactivity of the control sample and shown in Table 3.
Number in %, nothing else.

Worked cases, inhibition at 0.5 µM given:
>>> df
                                   compound            value_type  unit_abbrev  experimental_value
0  CCOC(=O)CCc1c(/C=C2\C(=O)Nc3ccc(Br)cc32)[nH]c2c1C(=O)CCC2 [DCB-70056]  inhibition at 0.5 µM            %                84.1
1  O=C(O)CCc1c(/C=C2\C(=O)Nc3ccc(NS(=O)(=O)c4ccccc4)cc32)[nH]c2c1C(=O)CCCC2 [DCB-70147]  inhibition at 0.5 µM            %                17.3
2  CCOC(=O)CCc1c(/C=C2\C(=O)Nc3cc(-c4ccc(O)cc4)ccc32)[nH]c2c1C(=O)CCC2 [DCB-70066]  inhibition at 0.5 µM            %                85.4
3  O=C(O)CCc1c(/C=C2\C(=O)Nc3ccc(NC(=O)c4ccc(F)cc4)cc32)[nH]c2c1C(=O)CCC2 [DCB-70076]  inhibition at 0.5 µM            %                26.9
4  CCOC(=O)CCc1c(/C=C2\C(=O)Nc3cc(Br)ccc32)[nH]c2c1C(=O)CCC2 [DCB-70130]  inhibition at 0.5 µM            %                84.9
5  CCOC(=O)CCc1c(/C=C2\C(=O)Nc3ccccc32)[nH]c2c1C(=O)CCC2 [DCB-70049]  inhibition at 0.5 µM            %                  54
6  COc1cc(-c2ccc3c(c2)/C(=C/c2[nH]c4c(c2CCC(=O)O)C(=O)CCC4)C(=O)N3)ccc1O [DCB-70059]  inhibition at 0.5 µM            %                38.3
7  NS(=O)(=O)c1ccc2c(c1)/C(=C/c1[nH]c3c(c1CCC(=O)O)C(=O)CCC3)C(=O)N2 [DCB-70095]  inhibition at 0.5 µM            %                36.2

Sample CCOC(=O)CCc1c(/C=C2\C(=O)Nc3cc(-c4cc5ccccc5s4)ccc32)[nH]c2c1C(=O)CCC2 [DCB-70079] — what was its inhibition at 0.5 µM?
9.6

Sample O=C(O)CCc1c(/C=C2\C(=O)Nc3ccc(S(=O)(=O)N4CCOCC4)cc32)[nH]c2c1C(=O)CCC2 [DCB-70088] — what was its inhibition at 0.5 µM?
1

Sample O=C(O)CCc1c(/C=C2\C(=O)Nc3ccc(-c4cc5ccccc5s4)cc32)[nH]c2c1C(=O)CCC2 [DCB-70070] — what was its inhibition at 0.5 µM?
18.7

Sample CNS(=O)(=O)c1ccc2c(c1)/C(=C/c1[nH]c3c(c1CCC(=O)N1CCN(C)CC1)C(=O)CCC3)C(=O)N2 [DCB-70117] — what was its inhibition at 0.5 µM?
8.9
